Assign protein stability index to each entry below.
B1: RBBP5 (parent)
chain: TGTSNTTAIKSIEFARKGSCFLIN

# Variants of: B1
# protocol_summary: protein stability index of a GFP-peptide fusion (GPS, HEK-293T) (PSI 1-6); higher = more stable;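 note: lentivirally expressed fusions sorted by FACS into six bins by GFP to DsRed ratio, PSI derived from sequencing read proportions per bin multiplied by bin number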
# condition_info: c terminus: a fixed tail appended
Answers are plain numbers.

Example entries and their recorded answers appear below.
[
  {
    "mutation": "F21S",
    "recorded_measurement": 3.09
  },
  {
    "mutation": "N24P",
    "recorded_measurement": 3.12
  },
  {
    "mutation": "G18M",
    "recorded_measurement": 1.85
  },
  {
    "mutation": "F14S",
    "recorded_measurement": 3.42
  }
]

List the reported protein stability index of each variant below.
1. G18V
2. N5V
3. T6M

1: 3.95; 2: 2.38; 3: 2.04

Go through the list and state protein stability index for each entry.
1. E13S
2. T6C
3. G18H
4. A15G
5. T3F
6. G2S
7. G2P

1. 2.38
2. 2.05
3. 1.74
4. 2.38
5. 1.61
6. 2.11
7. 2.63

Quick batch: protein stability index for everything below.
1. T7M
2. G18D

1: 1.95; 2: 2.89
